Parameter TGI: see the listing below.
Test system: NCI-H522 lung
procedure_details: NCI tumour cell line growth inhibition, 48 h
Report as a plain number; the unit µM is understood.

The following molecules have reported results that may help.
INSERT INTO results (molecule, numeric_result) VALUES
  ('Cc1cc(NCCN(C(C)C)C(C)C)nc(/N=C(\N)Nc2ccc(Cl)c(C(F)(F)F)c2)n1', 0.47),
  ('CC1OC(n2c3ccccc3c3c4c(c5c6ccccc6[nH]c5c32)C(=O)N(CCN[C@@H]2CCC[C@H]2N)C4=O)CC(O)C1O (some centres undefined)', 5.26),
  ('NC(=O)c1cc2ccc(O)cc2oc1=Nc1ccccc1', 77.9);

Now consider a different molecule.
IN: Please report TGI for the following molecule: CCOP(=O)(OCC)C(Nc1ccc(Br)cc1)c1cccc([N+](=O)[O-])c1 (centres undefined)
OUT: 28
